- Target: recombinant human tau 4R2N (Homo sapiens (Human), UniProt P10636)
- Sequence (P10636 other isoform, or with tags, fused parts or gaps): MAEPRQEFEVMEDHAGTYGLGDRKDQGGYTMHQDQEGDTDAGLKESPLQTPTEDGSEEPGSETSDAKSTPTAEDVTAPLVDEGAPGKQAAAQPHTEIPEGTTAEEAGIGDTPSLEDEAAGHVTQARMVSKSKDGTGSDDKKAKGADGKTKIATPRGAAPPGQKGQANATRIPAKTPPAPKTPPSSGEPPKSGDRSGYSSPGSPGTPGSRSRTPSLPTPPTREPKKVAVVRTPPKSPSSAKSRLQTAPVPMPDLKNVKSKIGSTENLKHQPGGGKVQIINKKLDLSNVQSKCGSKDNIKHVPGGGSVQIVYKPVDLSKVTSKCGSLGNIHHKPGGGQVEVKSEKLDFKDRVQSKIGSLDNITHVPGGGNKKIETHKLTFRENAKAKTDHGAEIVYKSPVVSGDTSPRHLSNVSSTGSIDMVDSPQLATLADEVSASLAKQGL
- Procedure Summary: AlphaLisa Assay (ALA), primary screen for inhibition of tau oligomer formation
- Format: biochemical
- Measurement Setup: tau target 300 nM, 4 hours room temperature, compound 0.098 uM-50 uM
Structures can show the parent of a compound that is named as a salt.
Field 'label' (enum: t / f). Set to t when IC50 is strictly under 7 µM; else f.

Worked examples follow.
* COc1ccc(-n2c(-c3cccnc3)nc3ccsc3c2=O)cn1 [Ex. 14, dihydrochloride] | t
* CCc1ccc(-n2c(-c3cccnc3)nc3ccccc3c2=O)cc1Br | t
* CCc1ccc(-n2c(-c3cccnc3)nc3ccccc3c2=O)cc1F | f

Req: Lab note: confirm whether the reported IC50 for this compound is below 7 µM, equality not counting. compound: O=c1c2ccccc2nc(-c2cccnc2)n1-c1ccc(Cl)c(O)c1 [Ex. 2, hydrochloride]
Resp: t

Req: Lab note: confirm whether the reported IC50 for this compound is below 7 µM, equality not counting. compound: CN1CC(C(=O)Nc2ccc(-c3nc4ccccc4c(=O)n3-c3cccnc3)cc2)C1 [Ex. 7, dihydrochloride]
Resp: f

Req: Lab note: confirm whether the reported IC50 for this compound is below 7 µM, equality not counting. compound: O=c1c2ccccc2nc(-c2cccnc2)n1-c1cccc(O)c1 [Ex. 21, hydrochloride]
Resp: t

Req: Lab note: confirm whether the reported IC50 for this compound is below 7 µM, equality not counting. compound: Cc1ccc(-n2c(-c3cccnc3)nc3ccsc3c2=O)cc1O
Resp: f

Req: Lab note: confirm whether the reported IC50 for this compound is below 7 µM, equality not counting. compound: O=c1c2ccccc2nc(-c2cccnc2)n1CCCCO [Ex. 3, hydrochloride]
Resp: f

###

- Target: recombinant human tau 4R2N (Homo sapiens (Human), UniProt P10636)
- Procedure Summary: Confirmatory Assay (CONFA), SDS-PAGE quantification of tau monomer and oligomers
- Type: biochemical
- Measurement Setup: tau target 300 nM, 3 hours room temperature, compound 0.098 uM-50 uM
pIC50: −log10 of the molar value. Where a name gives a salt, the structure may show the parent alone.
Returns true (1) if the recorded pIC50 is greater than or equal to 5, and false (0) otherwise.

Worked examples follow.
• O=c1[nH]c(-c2cccnc2)nc2cnccc12 [Ex. 6, dihydrochloride] = false (0)
• COc1ccc(-n2c(-c3cccnc3)nc3ccsc3c2=O)cn1 [Ex. 14, dihydrochloride] = false (0)
• Cc1ccc(-n2c(-c3cccnc3)nc3ccccc3c2=O)cc1O [Ex. 20, hydrochloride] = true (1)
• CN1CC(C(=O)Nc2ccc(-c3nc4ccsc4c(=O)[nH]3)cc2)C1 [Ex. 9, hydrochloride] = false (0)
• CCc1ccc(-n2c(-c3ccc(NC(C)=O)cc3)nc3ccsc3c2=O)cc1O = true (1)

Turning now to a further molecule:
Req: State whether the measured pIC50 reaches 5, counting equality as reaching it, for O=c1c2ccccc2nc(-c2cccnc2)n1-c1cccc(OCc2ccccc2)c1 [Ex. 4, hydrochloride]
Resp: true (1)

###

Below, each entry is listed with its recorded pIC50.
- Target: recombinant human tau 4R2N (Homo sapiens (Human), UniProt P10636)
- Procedure Summary: AlphaLisa Assay (ALA), primary screen for inhibition of tau oligomer formation
- Type: biochemical
- Measurement Setup: tau target 300 nM, 4 hours room temperature, compound 0.098 uM-50 uM
Where a name gives a salt, the structure may show the parent alone.
Hey, just a heads up that pIC50 is the negative log base 10 of the concentration in molar.

Recorded results for 2 compounds are shown here.
• CN1CC(C(=O)Nc2ccc(-c3nc4ccsc4c(=O)[nH]3)cc2)C1 [Ex. 9, hydrochloride] = 5.16
• CCc1ccc2cc(-n3c(-c4cccnc4)nc4ccccc4c3=O)ccc2c1 = 5.09

Req: Consider the compound CCc1ccc(-n2c(-c3ccc(NC(C)=O)cc3)nc3ccsc3c2=O)cc1O tested on recombinant human tau 4R2N (Homo sapiens (Human), UniProt P10636); state its pIC50.
Resp: 5.34

Req: Consider the compound O=c1c2ccccc2nc(-c2cccnc2)n1-c1cccc(OCc2ccccc2)c1 [Ex. 4, hydrochloride] tested on recombinant human tau 4R2N (Homo sapiens (Human), UniProt P10636); state its pIC50.
Resp: 5.11

Req: Consider the compound O=c1c2sccc2nc(-c2cccnc2)n1-c1cccnc1 tested on recombinant human tau 4R2N (Homo sapiens (Human), UniProt P10636); state its pIC50.
Resp: 4.58

Req: Consider the compound Cc1ccc(-n2c(-c3cccnc3)nc3ccccc3c2=O)cc1O [Ex. 20, hydrochloride] tested on recombinant human tau 4R2N (Homo sapiens (Human), UniProt P10636); state its pIC50.
Resp: 5.72

Req: Consider the compound O=c1[nH]c(-c2cccnc2)nc2ccsc12 tested on recombinant human tau 4R2N (Homo sapiens (Human), UniProt P10636); state its pIC50.
Resp: 5.43

Req: Consider the compound COc1ccc(-n2c(-c3ccc(NC(C)=O)cc3)nc3ccsc3c2=O)cn1 tested on recombinant human tau 4R2N (Homo sapiens (Human), UniProt P10636); state its pIC50.
Resp: 4.87

###

- Target: recombinant human tau 4R2N (Homo sapiens (Human))
- Procedure Summary: Confirmatory Assay (CONFA), SDS-PAGE quantification of tau monomer and oligomers
- Format: biochemical
- Measurement Setup: tau target 300 nM, 3 hours room temperature, compound 0.098 uM-50 uM
Counter-ions that a name gives are not always drawn.
Field 'label' (enum: Criterion met / Criterion not met). Set to Criterion met when IC50 is strictly under 30 µM; else Criterion not met.

• CN1CC(C(=O)Nc2ccc(-c3nc4ccccc4c(=O)n3-c3cccnc3)cc2)C1 [Ex. 7, dihydrochloride] = Criterion met

Req: Lab note: confirm whether the reported IC50 for this compound is below 30 µM, equality not counting. compound: O=c1c2ccccc2nc(-c2cccnc2)n1CCCCO [Ex. 3, hydrochloride]
Resp: Criterion met

Req: Lab note: confirm whether the reported IC50 for this compound is below 30 µM, equality not counting. compound: O=c1[nH]c(-c2cccnc2)nc2ccsc12
Resp: Criterion met

Req: Lab note: confirm whether the reported IC50 for this compound is below 30 µM, equality not counting. compound: Cc1ccc(-n2c(-c3cccnc3)nc3ccsc3c2=O)cc1O
Resp: Criterion not met

Req: Lab note: confirm whether the reported IC50 for this compound is below 30 µM, equality not counting. compound: O=c1c2ccccc2nc(-c2cccnc2)n1-c1ccc(Cl)c(O)c1 [Ex. 2, hydrochloride]
Resp: Criterion not met

Req: Lab note: confirm whether the reported IC50 for this compound is below 30 µM, equality not counting. compound: O=c1c2ccccc2nc(-c2cccnc2)n1-c1cccc(O)c1 [Ex. 21, hydrochloride]
Resp: Criterion met
